TC50 values, listed per item
Tested on: Madin-Darby bovine kidney (MDBK) cells
experimentDescription: Cytotoxicity in MDBK cells (drug toxicity control wells, XTT)
quantity: TC50

molecule: INF-α J1: human IFN-α species J1 (protein, UniProt P01567 24-189, looked up) Interferon alpha-7: CDLPQTHSLRNRRALILLAQMGRISPFSCLKDRHEFRFPEEEFDGHQFQKTQAISVLHEMIQQTFNLFSTEDSSAAWEQSLLEKFSTELYQQLNDLEACVIQEVGVEETPLMNEDFILAVRKYFQRITLYLMEKKYSPCAWEVVRAEIMRSFSFSTNLKKGLRRKD
quantity: TC50
recordedValue: >316.00 U/ml
--
molecule: INF-α G: human IFN-α species G (protein, UniProt P01569 22-189, looked up) Interferon alpha-5: LGCDLPQTHSLSNRRTLMIMAQMGRISPFSCLKDRHDFGFPQEEFDGNQFQKAQAISVLHEMIQQTFNLFSTKDSSATWDETLLDKFYTELYQQLNDLEACMMQEVGVEDTPLMNVDSILTVRKYFQRITLYLTEKKYSPCAWEVVRAEIMRSFSLSANLQERLRRKE
quantity: TC50
recordedValue: >316.00 U/ml
